Biological target: KRas WT (Homo sapiens, UniProt P01116)
Construct: Biotinylated KRas (corresponding to amino acids 1-169, produced at Accelegan Inc.); biotin (biotinylated); purchased Accelegan Inc
Sequence (P01116 1-169 isoform P01116-2): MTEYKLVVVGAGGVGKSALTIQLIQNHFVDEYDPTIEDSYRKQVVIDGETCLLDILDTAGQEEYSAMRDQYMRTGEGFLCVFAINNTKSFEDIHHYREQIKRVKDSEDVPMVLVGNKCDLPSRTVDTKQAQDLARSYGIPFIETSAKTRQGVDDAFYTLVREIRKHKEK
Test: KRas binding assay, TR-FRET displacement of Cy5 labelled tracer
Settings: 60-minute incubation at room temperature, 1% DMSO, pH 7.5
Record form. Attribute: IC50. Fill in for each entry.
Answers are plain numbers, in nM.

Before answering, review these 4 worked examples.
>>> print(df.to_string())
                                   molecule                             test_target  recorded_result
0  CCc1c(F)ccc2cc(O)cc(-c3ncc4c(N5CCC(C(=O)n6nc(C)cc6C)CC5)nc(OC[C@@]56CCCN5C[C@H](F)C6)nc4c3F)c12  KRas WT (Homo sapiens, UniProt P01116)              798
1  Cc1cc(C)n(C(=O)C2CCN(c3nc(OCC45CCCN4CCC5)nc4c(F)c(-c5cccc6cccc(F)c56)ncc34)CC2)n1  KRas WT (Homo sapiens, UniProt P01116)            64600
2  CCc1c(F)ccc2cc(O)cc(-c3ncc4c(N5CCC6CC6(C(=O)n6ccc(C)n6)CC5)nc(OC[C@@]56CCCN5C[C@H](F)C6)nc4c3F)c12 (stereo partly drawn)  KRas WT (Homo sapiens, UniProt P01116)              317
3  O=C(Oc1c(F)cccc1F)[C@H]1[C@@H]2C[C@H]1CN(c1nc(OCC34CCCN3CCC4)nc3c(F)c(-c4cccc5cccc(F)c45)ncc13)C2  KRas WT (Homo sapiens, UniProt P01116)             8060

Next, consider the following molecule.
Query: State its IC50 for this molecule: CCc1c(F)ccc2cc(O)cc(-c3ncc4c(NCCCC(=O)N(C)C(C)=O)nc(OC[C@@]56CCCN5C[C@H](F)C6)nc4c3F)c12
Result: 23
